Reported pIC50 values are given for each entry in this list.
target: SRC (Homo sapiens); construct: purchased Carna Biosciences; test: In vitro kinase assay, SRC (Caliper EZ Reader conversion); assay type: biochemical; settings: read-out: SRC IC50
Sequence (P12931 whole entry): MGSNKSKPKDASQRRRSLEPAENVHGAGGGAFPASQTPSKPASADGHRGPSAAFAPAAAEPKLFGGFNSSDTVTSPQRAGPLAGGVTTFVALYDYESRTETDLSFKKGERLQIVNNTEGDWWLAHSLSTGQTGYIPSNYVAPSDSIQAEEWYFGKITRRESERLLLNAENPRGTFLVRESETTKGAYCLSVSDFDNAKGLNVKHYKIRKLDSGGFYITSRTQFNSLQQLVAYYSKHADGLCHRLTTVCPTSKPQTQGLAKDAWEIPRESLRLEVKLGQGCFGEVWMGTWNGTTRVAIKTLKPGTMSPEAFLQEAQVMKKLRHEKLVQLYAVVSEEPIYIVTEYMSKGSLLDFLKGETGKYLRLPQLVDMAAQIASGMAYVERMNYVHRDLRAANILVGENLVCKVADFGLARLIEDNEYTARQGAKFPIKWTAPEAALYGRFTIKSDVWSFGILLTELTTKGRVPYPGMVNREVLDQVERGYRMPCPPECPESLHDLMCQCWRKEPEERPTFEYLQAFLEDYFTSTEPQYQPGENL
pIC50: −log10 of the molar value.
MEASURED QUANTITY: pIC50

| MOLECULE SMILES | RESULT |
| --- | --- |
| Clc1cccc(Cl)c1C1=Cc2cnc(Nc3ccncc3)nc2N2CCN=C12 | > 7.00 |
| Fc1cc(N2CCNCC2)ccc1Nc1ncc2c(n1)N1CCN=C1C(c1ccccc1Cl)=C2 | > 7.00 |
| Fc1cnccc1Nc1ncc2c(n1)N1CCCN=C1C(c1ccccc1)=C2 | < 5.00 |
| Clc1ccc(C2=Cc3cnc(Nc4ccncc4)nc3N3CCN=C23)c(Cl)c1 | 5.00 to 7.00 |

Data provenance: patent US20230303570A1
